TEST_DETAILS: ATG_DR4_LXR_CIS: Attagene CIS-FACTORIAL HepG2 Assay for human Liver X Receptor (LXR), DR4 submotif (AID 2282929)
MEASUREMENT_CONTEXT: HepG2 Attagene DR4 cis-reporter, mRNA transcription; actives raise or lower the signal
Active and inactive are the calls of the source. Rule for the calls: active = hit-call score of the fitted dose curve at least 0.9, where 1 is the maximum; inactive = score below 0.9.
Log the outcome using a class from t (active), f (inactive)

>>> group("C1CCC(SSC2CCCCC2)CC1")
"f"
>>> group("COC(=O)c1ccc(O)cc1")
"f"
>>> group("CCCCCC(=O)O")
"f"
>>> group("Cc1oc(-c2ccccc2)nc1CCOc1cccc2c1ccn2CCC(=O)O")
"t"

Data request: Please state the recorded outcome for this compound: CC1(C)NC(=O)NC1=O
Data returned: f

Data request: What would you report for Nc1nc(N)c2nc(CNc3ccc(C(=O)N[C@@H](CCC(=O)O)C(=O)O)cc3)cnc2n1 ?
Data returned: f

Data request: What would you report for Cc1cccc([N+](=O)[O-])c1C ?
Data returned: f

Data request: What would you report for CCNc1cccc(C)c1 ?
Data returned: f

###

TEST_DETAILS: LTEA_HepaRG_LDH_cytotoxicity: Cytotoxicity Assessment in the Life Technologies and Expression Analysis (LTEA) Assay (AID 2283563)
Activity calls are given as the source filed them. The calls were made as follows: active = hit-call score of the fitted dose curve at least 0.9, where 1 is the maximum; inconclusive = response in the unintended direction; inactive = score below 0.9.
Log the outcome using a class from 1.0 = active, 0.0 = inactive

>>> group("Nc1ccc2c(c1)C(=O)c1ccccc1C2=O")
0.0
>>> group("CCOc1ccc2c(c1)C(C)=CC(C)(C)N2")
0.0

Data request: Please state the recorded outcome for this molecule: CC(=O)Oc1ccccc1C(=O)O
Data returned: 0.0

Data request: What would you report for COC(=O)c1ccc(O)cc1 ?
Data returned: 0.0

Data request: What would you report for NCC1(Cc2noc(=O)[nH]2)CCCCC1 ?
Data returned: 0.0

Data request: What would you report for Nc1ccc(S(=O)(=O)c2ccc(N)cc2)cc1 ?
Data returned: 0.0

Data request: What would you report for CCc1c(C(=O)NN2CCCCC2)nn(-c2ccc(Cl)cc2Cl)c1-c1ccc(Br)cc1 ?
Data returned: 1.0

###

Read-out: CD69, CD69 (gene 969)
TEST_DETAILS: BSK_SAg_CD69: BioMAP Diversity Plus: SAg Assay for CD69 Biomarker Activity (AID 2283089)
MEASUREMENT_CONTEXT: primary human HUVEC with PBMC; actives raise or lower the signal
Activity calls are given as the source filed them. Rule for the calls: active = hit-call score of the fitted dose curve at least 0.9, where 1 is the maximum; inactive = score below 0.9.
Log the outcome using a class from t = active, f = inactive

Data request: Please state the recorded outcome for this molecule: O=C(N[C@@H](Cc1ccccc1)[C@@H](O)C(=O)N1C[C@@H](O)[C@@H](O)C1)c1cc2cc(Cl)ccc2[nH]1
Data returned: f

Data request: What would you report for FC(F)(F)C(F)(F)C(F)(F)C(F)(F)C(F)(F)C(F)(F)CCI ?
Data returned: f

Data request: What would you report for CC(=O)OCCOCCOCCOC(C)=O ?
Data returned: f

Data request: What would you report for CCCCC(CC)COC(=O)CC(C(=O)OCC(CC)CCCC)S(=O)(=O)O (centres undefined) ?
Data returned: t

Data request: What would you report for CCCCOC(=O)CCCCCCCCC(=O)OCCCC ?
Data returned: f

Data request: What would you report for Cc1cc(=O)[nH]c(=S)[nH]1 ?
Data returned: f

Data request: What would you report for O=C(O)Cc1ccccc1Nc1c(Cl)cccc1Cl ?
Data returned: f
